EC50: recorded values
- tested-on: RXRα (Homo sapiens, UniProt P19793)
- Construct: the only RXRα plasmid printed
- Sequence (P19793 227-462 limits assumed): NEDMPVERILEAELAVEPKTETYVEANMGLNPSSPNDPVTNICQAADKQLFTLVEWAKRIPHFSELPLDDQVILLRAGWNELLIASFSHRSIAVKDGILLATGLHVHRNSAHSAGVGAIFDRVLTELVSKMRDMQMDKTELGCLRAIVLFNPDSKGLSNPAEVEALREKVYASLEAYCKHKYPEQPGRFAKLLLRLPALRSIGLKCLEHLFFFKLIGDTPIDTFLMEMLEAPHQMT
- test: receptor transactivation assay, RXRα
- Type: cell-based
- settings: first entry of cell, read-out: RXR Trans. EC50 (nM) α
value-kind: EC50

INSERT INTO results (molecule, tested_on, reported) VALUES
  ('CC(/C=C/[C@@H]1C[C@]1(C)c1cc(-c2ccccc2C)c2c(c1)C(C)(C)CO2)=C\C(=O)O [Compound 26]', 'RXRα (Homo sapiens, UniProt P19793)', '0.2 nM'),
  ('CC(/C=C/[C@@H]1C[C@]1(C)c1ccc2c(c1)C(C)(C)CO2)=C\C(=O)O [Compound 2]', 'RXRα (Homo sapiens, UniProt P19793)', '1.1 nM'),
  ('CC(/C=C/[C@@H]1C[C@]1(C)c1cc(C(C)C)c2c(c1)C(C)(C)CO2)=C\C(=O)O [Compound 8]', 'RXRα (Homo sapiens, UniProt P19793)', '0.159 nM'),
  ('CC(/C=C/[C@@H]1C[C@]1(C)c1cc(C(C)(C)C)c2c(c1)C(C)(C)CO2)=C\C(=O)O [Compound 10]', 'RXRα (Homo sapiens, UniProt P19793)', '0.55 nM'),
  ('COc1ccc(-c2cc([C@@]3(C)C[C@H]3/C=C/C(C)=C/C(=O)O)cc3c2OCC3(C)C)cc1 [Compound 32]', 'RXRα (Homo sapiens, UniProt P19793)', '581 nM'),
  ('CCCCC(O)CCc1cc([C@@]2(C)C[C@H]2/C=C/C(C)=C/C(=O)O)cc2c1OCC2(C)C (stereo partly shown) [Compound 38]', 'RXRα (Homo sapiens, UniProt P19793)', '1950 nM'),
  ('CC(/C=C/[C@@H]1C[C@]1(C)c1cc(Br)c2c(c1)C(C)(C)CO2)=C\C(=O)O [Compound 20]', 'RXRα (Homo sapiens, UniProt P19793)', '2.4 nM');
